src = paper PMC10397247

# subject-of-test: T1, 4H3619-AA
# T1 chain: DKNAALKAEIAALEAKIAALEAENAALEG
# run-description: two-hybrid library CCmax;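 also: natural log of median RNA to DNA barcode read ratio; higher means stronger binding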
# experimental-parameters: mean of both orientations
recorded-metric: interaction score

binder="DENAALEAEIAALEAEIAALKAKNAALKG [4H1040-AA]" recorded_metric="interaction score" observed=0.716
binder="DEIAALEAENAALEAEIAALEAKIAALEG [4H133-AA]" recorded_metric="interaction score" observed=-0.325
binder="DKIAALKAKNAALKAKIAALKAEIAALEG [4H3049-AA]" recorded_metric="interaction score" observed=-0.754
binder="DENAALEAKIAALKAKIAALEAKNAALKG [4H1384-AA]" recorded_metric="interaction score" observed=2.13
binder="DEIAALEAENAALKAKIAALKAENAALEG [4H235-AA]" recorded_metric="interaction score" observed=-1.48
